Species on record: Rattus norvegicus
METHOD_SUMMARY: Open TG-GATES - Regimen: Single
Type: toxicity, organism-based, Sprague-Dawley
Set-up: regimen Single, gender Male, age 6 weeks
RECORDED_CONDITIONS: in vivo, po, 1000 mg/kg, 6 h, tissue Blood, route gavage, dose level High
QUANTITY_NAME: Plat (x10_4/uL)
Quick note: give the figure in x10_4/uL, leave out the unit.

CN/C(=N/CCSCc1nc[nH]c1C)NC#N [CIMETIDINE]; 125.8
CNC(=C[N+](=O)[O-])NCCSCc1ccc(CN(C)C)o1 [RANITIDINE]; 106.2
O=C(OC[C@H]1O[C@@H](OC(=O)c2cc(O)c(O)c(OC(=O)c3cc(O)c(O)c(O)c3)c2)[C@H](OC(=O)c2cc(O)c(O)c(OC(=O)c3cc(O)c(O)c(O)c3)c2)[C@@H](OC(=O)c2cc(O)c(O)c(OC(=O)c3cc(O)c(O)c(O)c3)c2)[C@@H]1OC(=O)c1cc(O)c(O)c(OC(=O)c2cc(O)c(O)c(O)c2)c1)c1cc(O)c(O)c(OC(=O)c2cc(O)c(O)c(O)c2)c1 [TANNIC ACID]; 115.1
COC(=O)C1=C(C)NC(C)=C(C(=O)OC)C1c1ccccc1[N+](=O)[O-] [NIFEDIPINE]; 123.3

Let us move to another entry and its Plat.
Item under review: Cc1nnc2n1-c1ccc(Cl)cc1C(c1ccccc1Cl)=NC2 [TRIAZOLAM] . Reported Plat?
122.7
